Biological target: Neu5Ac(a2-3)Gal(b1-4)[Fuc(a1-3)]GlcNAc(b1-3)Gal
Assay: glycan array binding signal (z-score within array); higher = stronger binding
Settings: glycan notation: IUPAC condensed, linker removed
This excerpt belongs to a sample that is enriched for the strongest signals.
READOUT TYPE: glycan array binding signal (z-score)

Previously resolved entries follow.
CM2 (Cordyceps militaris) (protein) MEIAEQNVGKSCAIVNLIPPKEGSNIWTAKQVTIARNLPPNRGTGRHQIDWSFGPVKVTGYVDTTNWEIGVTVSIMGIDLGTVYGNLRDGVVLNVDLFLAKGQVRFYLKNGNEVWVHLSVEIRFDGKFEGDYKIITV
0.036
NPA (Narcissus pseudonarcissus), C0HM45 (protein) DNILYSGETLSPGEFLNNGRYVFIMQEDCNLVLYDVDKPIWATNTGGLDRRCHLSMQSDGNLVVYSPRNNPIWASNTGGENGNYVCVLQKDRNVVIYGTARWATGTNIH
-0.162
Ovorubin (Pomacea canaliculata), J7I2T6 (protein) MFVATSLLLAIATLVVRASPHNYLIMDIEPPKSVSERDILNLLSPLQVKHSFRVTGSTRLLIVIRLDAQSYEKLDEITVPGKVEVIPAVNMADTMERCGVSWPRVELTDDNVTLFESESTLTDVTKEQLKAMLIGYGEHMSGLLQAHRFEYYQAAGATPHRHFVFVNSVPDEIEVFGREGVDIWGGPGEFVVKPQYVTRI
-1.06

Q) glycan array binding signal (z-score) for CML1 (Coprinopsis cinerea) (protein) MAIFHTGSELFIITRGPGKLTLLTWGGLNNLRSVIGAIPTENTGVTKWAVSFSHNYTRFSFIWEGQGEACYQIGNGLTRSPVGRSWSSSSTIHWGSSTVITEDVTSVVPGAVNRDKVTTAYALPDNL ?
A) 4.46

Q) What measured glycan array binding signal (z-score) goes with Gal 8 (Homo sapiens), O00214_1 (protein) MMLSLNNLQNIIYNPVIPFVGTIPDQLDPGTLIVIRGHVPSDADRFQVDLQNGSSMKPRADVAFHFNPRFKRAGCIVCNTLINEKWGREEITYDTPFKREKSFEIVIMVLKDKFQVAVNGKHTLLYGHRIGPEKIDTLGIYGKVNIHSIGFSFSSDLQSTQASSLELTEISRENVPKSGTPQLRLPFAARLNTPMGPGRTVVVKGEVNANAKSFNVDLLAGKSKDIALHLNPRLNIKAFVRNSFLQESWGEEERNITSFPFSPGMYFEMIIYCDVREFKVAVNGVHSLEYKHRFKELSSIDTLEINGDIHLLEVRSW ?
A) -0.243

Q) Which glycan array binding signal (z-score) is reported for this binder? CD23 (Homo sapiens) (protein) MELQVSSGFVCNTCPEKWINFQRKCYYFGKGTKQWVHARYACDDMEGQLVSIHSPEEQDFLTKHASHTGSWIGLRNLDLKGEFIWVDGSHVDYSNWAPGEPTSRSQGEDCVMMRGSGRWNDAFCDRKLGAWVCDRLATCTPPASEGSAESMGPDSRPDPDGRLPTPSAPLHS
A) -0.435

Hey, just so you know, these numbers are from the supplement of paper PMC8728848.
